Assign PBM E-score to each entry below.
Biological target: Sut1 (UniProt P53032)
Sequence: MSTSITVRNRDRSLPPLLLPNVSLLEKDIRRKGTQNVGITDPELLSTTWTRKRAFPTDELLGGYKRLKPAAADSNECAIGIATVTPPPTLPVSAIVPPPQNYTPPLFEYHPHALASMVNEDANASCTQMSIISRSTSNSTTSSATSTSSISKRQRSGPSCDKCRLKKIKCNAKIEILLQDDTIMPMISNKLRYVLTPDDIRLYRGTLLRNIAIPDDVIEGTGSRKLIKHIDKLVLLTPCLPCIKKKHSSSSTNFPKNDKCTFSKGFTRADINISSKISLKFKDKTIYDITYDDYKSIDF
Assay: PBM E-score (8-mer binding enrichment) (E-score (-0.5 to 0.5)); higher = stronger / more preferred TF binding
Conditions: protein concentration: 200 nM; construct: GST-full length
In all, about 33,000 sequences were measured (“E-score (-0.5 to 0.5)”: median about -0.017, highest 2% from about 0.3 on). Only a selection was taken, and the highest values are over-represented in it overall.
One number for each entry.

Answered cases to consult:
record_sequence=CAGTCGGA assay_system="Sut1 (UniProt P53032)" parameter="PBM E-score" measurement=0.204
record_sequence=ACATCGCA assay_system="Sut1 (UniProt P53032)" parameter="PBM E-score" measurement=-0.067
record_sequence=ACCGGACC assay_system="Sut1 (UniProt P53032)" parameter="PBM E-score" measurement=0.364

Dear colleague, could you send me PBM E-score for each of the items below? Thanks.
1. TAAAAACA
2. CGGAGCTA
3. CGGGCCCG
4. CATAACAA

1. 0.188
2. 0.385
3. 0.316
4. 0.179

Ref: the supplement of paper PMC3334620
